Measured values drawn from PubChem BioAssay (NCI) for this set.

Recorded TGI values for a group of compounds are listed next.
# Tested on: SR leukemia
# assay.comment: NCI tumour cell line growth inhibition, 48 h
quantity.name: TGI

In [3]: df
Out[3]:
                                    compound  test_value
 0  C[N+](C)(C)CC(=O)N/N=C(\C(=O)NC1=C(Cl)C(=O)c2ccccc2C1=O)C(C#N)c1csc(-c2ccc([N+](=O)[O-])cc2)n1 (stereo not drawn)    > 100 µM
 1  O=C(/C=C/c1ccccc1)n1c(-c2ccc(Cl)cc2)nc2ccccc21     1.88 µM
 2         NNC(=O)c1nnn(CCc2ccccc2)c1C(=O)NN    > 100 µM
 3         c1csc(C[N+]23CN4CN(CN(C4)C2)C3)c1     35.9 µM
 4  CN1C(=O)C(=O)c2cc3c(c4c2c1cc1ccccc14)OCO3     54.8 µM
 5  c1c[nH]c(C23C4C5C6C4C2C6C53)n1 (stereo not drawn)    > 100 µM
 6  COC(=O)[C@H](Cc1c[nH]c2ccccc12)NC(=O)c1ccc(CNC(=O)/C=C/c2cccc(Oc3ccccc3)c2)cc1    > 100 µM
 7  Cc1ccc(N(CC(=O)Nc2ccc(S(=O)(=O)N3CCC(N4CCCC4)CC3)cc2)S(=O)(=O)c2ccc(Cl)cc2)cc1    0.856 µM
 8  Cc1ccc(/C(O)=C/c2nc3ccccc3s/c2=N/CS(=O)(=O)c2ccc(C)cc2)cc1     > 10 µM
 9  Nc1ccc(C(=O)c2cn(CCN3CCOCC3)c3ccccc23)c2ccccc12     65.6 µM
10  CCCN(CCCC(NC(C)=O)C(=O)NCc1ccccc1)C(=O)NCCCl (stereo not drawn)    > 100 µM
11  COC(=O)C(Cc1nc2ccccc2[nH]c1=O)C(=O)C(=O)Nc1ccc([N+](=O)[O-])cc1[N+](=O)[O-] (stereo not drawn)    > 100 µM
12  COc1ccc(C2C3COc4ccccc4C3=NN2c2ccccc2)cc1 (stereo not drawn)    > 100 µM
13  COc1cccc(NC(=O)c2sc3nc4c(cc3c2N)C(=O)CCC4)c1    > 100 µM
14  COc1cc(CNC2c3cc4c(cc3C(c3cc(OC)c(OC)c(OC)c3)[C@H]3C(=O)OCC23)OCO4)cc(OC)c1OC (stereo partly drawn)    > 100 µM
15  CC(C)C1=CC23CCC4C(C)(C(=O)O)CCCC4(C)C2CC1C1C(=O)N(c2ccccc2)C(=O)C13 (stereo not drawn)    > 100 µM
16   Cc1cccc(C)c1NC(=O)Nc1ccc(S(N)(=O)=O)cc1    > 100 µM
17                    CCOC(=N)CC(=O)c1ccccc1    > 100 µM
18  COc1ccc(OC)c(NS(=O)(=O)c2ccc3nc(C)n(NS(=O)(=O)c4cc(OC)ccc4OC)c(=O)c3c2)c1    > 100 µM
19      FC(F)(F)C1(Br)C(c2ccccc2)=C1c1ccccc1     78.5 µM
20  CCCCCCCCCCC1OC([C@@H](O)CC[C@H](O)C2CC[C@@H](CCCCCCCC(O)CC3=CC(C)OC3=O)O2)CCC1O (stereo partly drawn)     16.5 µM
21  Cc1ccc(C)c(C2NC(=O)c3ccccc3N2)c1 (stereo not drawn)   > 27.4 µM
22    C=C[C@@]1(O)CCCC2=C(C(=O)OCC)CC[C@]21C    > 100 µM

* * *

# Test system: RPMI-8226 leukemia
# assay.comment: NCI tumour cell line growth inhibition, 48 h; in the data active = GI50 below about 0.43 µM; inactive = the rest
Possible outcomes: active, inactive

In [3]: df
Out[3]:
                                   molecule  qualitative_label
0  CNC(=O)Cc1nc(-c2cccc(NS(=O)(=O)c3c(F)cccc3F)c2F)c(-c2ccnc(Nc3ccccc3)n2)s1           inactive
1  C=C(OC1C(C)=C2C(C1OC(=O)CCCCCCC)C(C)(OC(C)=O)CC(OC(=O)CCC)C1(O)C2OC(=O)C1(C)O)/C(C)=C/C (stereo not drawn)             active
2  NC(=O)c1cccc(Nc2nccc(Nc3cccc4[nH]ncc34)n2)c1           inactive

* * *

# System: K-562 leukemia
# assay.comment: NCI tumour cell line growth inhibition, 48 h
quantity.name: TGI

                                smiles_data  test_value
0  CN(/N=C/c1ccnc2ccccc12)c1ccc(Cl)cc1[N+](=O)[O-]    > 100 µM
1       Cc1noc(NC2=CC(=O)C(=O)c3ccccc32)c1C    0.872 µM
2  CN(C)C(=O)OC(Cn1cncn1)(Cn1cncn1)c1ccc(Cl)cc1Cl    > 100 µM
3             O=C(O)C(Cl)(c1ccccc1)c1ccccc1    > 100 µM

* * *

# System: OVCAR-8 ovarian
# assay.comment: NCI tumour cell line growth inhibition, 48 h
Recorded TGI values for a group of molecules are listed next.
quantity.name: TGI (µM)

molecule	relation	test.value
C=C1C(=O)O[C@H]2[C@@H](O)[C@H](C)CCC[C@]3(C)O[C@H]3CC[C@@]3(C)O[C@@H]3C[C@@H]12	=	13.4
O=[N+]([O-])c1ccc(C=NCC2CCCN3CCCCC23)cc1 (stereo not given)	>	100
CC(C)(C)[Si](C)(C)OC1[C@@H](O[Si](C)(C)C(C)(C)C)[C@@H](CNC(=O)NC(=O)CCl)O[C@H]1n1cnc2c(NC(=O)Nc3ccccc3)ncnc21 (stereo not given in full)	=	1.42
CC(C)(C)CC(C)(C)NCc1cc(C(C)(C)C)cc(CNC(C)(C)CC(C)(C)C)c1O	=	12.4
O=C1CC(c2cccc(Br)c2)n2cccc21 (stereo not given)	>	100
c1c[nH]c(C23C4C5C6C4C2C6C53)n1 (stereo not given)	>	100
C/C=C/CC(C)[C@@H](O)[C@H](NC)C(=O)O (stereo not given in full)	>	100
CSc1n[n+]2c(s1)SCCC2	>	100
CCOC(=N)CC(=O)c1ccccc1	>	100
CCOC(=O)/C(C#N)=C/c1ccnc2ccccc12	=	57

* * *

# Tested on: SF-295 CNS
# assay.comment: NCI tumour cell line growth inhibition, 48 h

compound	relation	TGI, µM
O=C1OC(=O)c2cc(S(=O)(=O)c3ccc4c(c3)C(=O)OC4=O)ccc21	>	100
C=C(OC1C(C)=C2C(C1OC(=O)CCCCCCC)C(C)(OC(C)=O)CC(OC(=O)CCC)C1(O)C2OC(=O)C1(C)O)/C(C)=C/C (stereo not drawn)	=	3.22
Cc1ccc(NC(=O)CSc2nc(=O)[nH]c3nc[nH]c23)cc1	>	100
Cc1ccc2nc(-c3ccc(N4C(=O)C(Cl)C4c4ccc(Cl)cc4)cc3)sc2c1 (stereo not drawn)	=	32.1
CC(C)=CCC/C(C)=C/CC/C(C)=C/CC/C(=C/CC/C(C)=C\CC/C(C)=C/CC/C(C)=C/CC/C(C)=C/Cc1cc(O)ccc1O)CO	=	5.85
Cc1cc(C)c(NC(=S)NC(=O)c2ccccc2)cc1C	>	100
COC(=O)c1cc(O)c2c(c1C(=O)OC)C[C@H]1[C@@H]3CC=C4C[C@@H](O)CC[C@]4(C)[C@H]3CC[C@]21C	=	4.4
N#Cc1c(-c2ccccc2)[nH]c(=O)n(C2OC(CO)C(O)C(O)C2O)c1=O (stereo not drawn)	>	100
C/C=C/CC(C)[C@@H](O)[C@H](NC)C(=O)O (stereo partly drawn)	>	100
CCOC(=O)C(C)(C)Oc1ccc(/C=C/C(=O)c2ccc(Cl)cc2)cc1	=	41.2
O=S(=O)(/N=C(\NO)Nc1ccc(Cl)cc1)c1cccc2nsnc12	>	100
COc1cccc(/C=C/C(=O)c2ccc(Cl)cc2Cl)c1	>	50
COc1cc(CNC2c3cc4c(cc3C(c3cc(OC)c(OC)c(OC)c3)[C@H]3C(=O)OCC23)OCO4)cc(OC)c1OC (stereo partly drawn)	=	0.677
Nc1nc(N)c2cc(NCc3ccc(Cl)c(Cl)c3)ccc2n1	=	2.61
COc1ccc2nc3cc([N+](=O)[O-])ccc3c(NCCCN(C)C)c2c1	=	2.39
CC(C)(C)[Si](C)(C)OC1[C@@H](O[Si](C)(C)C(C)(C)C)[C@@H](CNC(=O)NC(=O)CCl)O[C@H]1n1cnc2c(NC(=O)Nc3ccccc3)ncnc21 (stereo partly drawn)	=	0.922
Clc1ccc(C(SCc2ccccc2)SCc2ccccc2)cc1	>	10
O=C(O)/C(Cc1ccc([N+](=O)[O-])cc1)=N\O	>	100
Cc1ccc(/C(O)=C/c2nc3ccccc3s/c2=N/CS(=O)(=O)c2ccc(C)cc2)cc1	>	10
Cc1cc(CC(C)CC(C)(C)C)n(O)c(=O)c1 (stereo not drawn) (tested in a mixture with another compound)	=	18.5
N#CC1=C(N)NC(N2CCOCC2)=NC12Nc1ccccc1N2	>	100
O=[N+]([O-])c1cc2c(cc1/C=N/n1c(CO)nc3ccccc31)OCO2	>	100
O=C1C=CC(=O)c2cc(Sc3ccccc3)c(=O)ccc21	=	27.6
O=CC12C3CCC1C2C(=O)C3 (stereo not drawn)	>	100
CCN(CC)CCCNC(=O)c1c2c(n3ccccc13)C(=O)c1ncccc1C2=O	=	6.29
C=C1C(=O)O[C@@H]2C[C@]3(C)CC[C@]4(C)[C@H](CC[C@@H]5[C@@]6(C)CCC(=O)C(C)(C)[C@@H]6CC[C@]54C)[C@H]3[C@H]12	=	33.6
CCCCON1C[C@H](OC(C)=O)C(OC(C)=O)[C@H](OC(C)=O)C1 (stereo partly drawn)	>	100
CC1(C)C2CC(=O)C1(C)C(OCc1ccccc1)C2 (stereo not drawn)	>	100
CSc1n[n+]2c(s1)SCCC2	>	100
NC(=O)c1cccc(Nc2nccc(Nc3cccc4[nH]ncc34)n2)c1	>	25
C=CCO[C@]1(CC=C)C(=O)C(=O)OC1C1COC(C)(C)O1 (stereo partly drawn)	>	100
FC(F)(F)C1(Br)C(c2ccccc2)=C1c1ccccc1	=	28.7
O=C1Nc2ccc(Cl)cc2/C1=C\c1c(Cl)nc2sccn12	=	25.3
CCOC(=O)CC1(c2cccc3ccccc23)OC(=O)c2ccccc21 (stereo not drawn)	>	100
CC(C)C1=CC23CCC4C(C)(C(=O)O)CCCC4(C)C2CC1C1C(=O)N(c2ccccc2)C(=O)C13 (stereo not drawn)	>	100
Cc1cc(C)c(Cn2cnc3c(Cl)ncnc32)c(C)c1CCl	>	100
CC[C@H]1C=CCC[C@@]2(C[C@@H]3CC[C@H]4[C@@H](C(=O)OCCCCCCCCCCCCCCCC(=O)N(CCCN)C[C@@H](O)CCN)[C@@]5(CCC[C@@H](C)O5)NC(=[N+]34)N2)O1	=	3.68
COc1ccc(C(=O)c2cc3c(N)c(C(=O)Nc4ccc(C)cc4)sc3nc2C)cc1	=	15
